Answer each item with its documented Malic Enzyme (% control).
# Tested on: Cytosolic malic enzyme, rat liver
# TEST PROTOCOL: Cytosolic malic enzyme activity in liver of steroid-fed rats (enzyme induction in rat liver by C19 steroids)
# Assay type: in vivo, rat (male Sprague Dawley)
# ASSAY CONTEXT: 0.01 wt % steroid in diet, 6 days, rat liver cytosol
Lab note: write values as number then unit, every time.

So what's the measured Malic Enzyme (% control) for this one? C[C@]12CC[C@H](O)CC1=CC(=O)[C@@H]1[C@@H]2CC[C@]2(C)C(=O)CC[C@@H]12 [7-keto DHEA, Δ5-Androstene-3β-ol-7,17-dione]
229 % control

Next compound: C[C@]12CC[C@H](O)CC1=CC[C@@H]1[C@@H]2CC[C@]2(C)C(=O)CC[C@@H]12 [DHEA, Δ5-androstene 3β-hydroxy, 17-one, reference compound]
64 % control

Please give the result for C[C@]12CC[C@H]3[C@@H]([C@H](O)C=C4C[C@@H](O)CC[C@@]43C)[C@@H]1CC[C@@H]2O [Δ5-Androstene 3β,7α,17β-triol] too.
108 % control

Now consider C[C@]12CC[C@H]3[C@@H](C(=O)C=C4C[C@@H](O)CC[C@@]43C)[C@@H]1CC[C@@H]2O [Δ5-Androstene 3β,17β-diol-7-one, Δ5-Androstene-3β,17β-diol-7-one] .
175 % control

Also CC(=O)O[C@H]1CC[C@@]2(C)C(=CC(=O)[C@H]3[C@@H]4CC[C@H](OC(C)=O)[C@@]4(C)CC[C@@H]32)C1 ?
119 % control
